study.target: 72 kDa type IV collagenase (Homo sapiens, UniProt P08253)
Sequence (P08253 whole entry, the tested form may be a part): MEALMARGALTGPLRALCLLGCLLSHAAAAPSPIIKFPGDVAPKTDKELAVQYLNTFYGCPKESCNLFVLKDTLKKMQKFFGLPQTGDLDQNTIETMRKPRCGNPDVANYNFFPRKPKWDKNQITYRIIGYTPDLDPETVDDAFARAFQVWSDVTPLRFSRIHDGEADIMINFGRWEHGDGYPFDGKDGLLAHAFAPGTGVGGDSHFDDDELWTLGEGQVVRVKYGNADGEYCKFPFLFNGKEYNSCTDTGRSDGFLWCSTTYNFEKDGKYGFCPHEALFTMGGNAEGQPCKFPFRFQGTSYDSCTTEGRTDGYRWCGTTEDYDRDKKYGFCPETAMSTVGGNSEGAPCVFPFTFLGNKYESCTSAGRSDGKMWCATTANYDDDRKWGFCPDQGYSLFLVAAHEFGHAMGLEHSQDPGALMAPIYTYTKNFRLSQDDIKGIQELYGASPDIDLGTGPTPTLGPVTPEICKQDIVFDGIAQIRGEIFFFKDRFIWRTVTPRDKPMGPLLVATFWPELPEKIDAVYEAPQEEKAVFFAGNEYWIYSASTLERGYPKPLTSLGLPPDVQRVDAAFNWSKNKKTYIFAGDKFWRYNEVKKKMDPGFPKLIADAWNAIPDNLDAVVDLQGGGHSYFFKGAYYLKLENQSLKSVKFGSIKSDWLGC
protocol.notes: Inhibition of human recombinant MMP2 catalytic domain incubated for 20 mins by fluorimetric assay
reported.endpoint: IC50
# do not omit the unit; it follows the number

# compound, IC50
records = [
    ("CCCCOC(=O)[C@H]1c2c(/C=C/C(=O)O[C@H](Cc3ccc(O)c(O)c3)C(=O)O)ccc(O)c2O[C@@H]1c1ccc(O)c(O)c1", "15.5 µM"),
    ("COC(=O)[C@@H](Cc1ccc(O)c(O)c1)OC(=O)/C=C/c1ccc(O)c(O)c1 [METHYL ROSMARINATE]", "3.58 µM"),
]

What does the record list as IC50 for COC(=O)C1(O)CC(O)C(O)C(OC(=O)/C=C/c2ccc(O)c(O)c2)C1 (configuration not stated) ? 64.2 µM

So what's the measured IC50 for this one? CC(C)CC(=O)OC(C(=O)O)C(C)C (configuration not stated) 23.3 µM

For C[C@@H]1O[C@@H](O[C@@H]2[C@@H](O)[C@H](OCCc3ccc(O)c(O)c3)O[C@H](COC(=O)/C=C/c3ccc(O)c(O)c3)[C@H]2O)[C@H](O)[C@H](O)[C@H]1O [ISOACTEOSIDE] , what is its reported IC50? 8.96 µM

Recorded IC50 of COC(=O)C1(O)CC(OC(=O)/C=C/c2ccc(O)c(O)c2)C(O)C(OC(=O)/C=C/c2ccc(O)c(O)c2)C1 (configuration not stated) , please. 3.88 µM

Name the reported IC50 value associated with the compound "O=C1c2c(O)cc(O)cc2O[C@]2(c3ccc(O)cc3)Oc3cc(O)c4c(c3[C@@]12O)O[C@H](c1ccc(O)cc1)CC4" 23.3 µM
